system: Rattus norvegicus; test: Reduction in circulating lymphocytes count in Lewis rat peripheral blood at 0.3 mg/kg, po measured after 24 hrs by hematology analyzer based analysis; type: functional
Is inhibition in vivo at 0.3 mg/kg at least 40%? Then satisfied. If not, not satisfied.

**Q:** Does the reported inhibition in vivo at 0.3 mg/kg for N[C@]1(CO)CC[C@H](c2ccc3c(c2)CC[C@H](COCc2ccccc2)C3)C1 fall at or above the 40% mark?
**A:** not satisfied

**Q:** Does the reported inhibition in vivo at 0.3 mg/kg for COc1cccc(CO[C@H]2CCc3cc([C@H]4CC[C@](N)(CO)C4)ccc3C2)c1 fall at or above the 40% mark?
**A:** not satisfied

**Q:** Does the reported inhibition in vivo at 0.3 mg/kg for COc1cccc(OC[C@H]2CCc3cc([C@H]4CC[C@](N)(CO)C4)ccc3C2)c1 fall at or above the 40% mark?
**A:** satisfied

**Q:** Does the reported inhibition in vivo at 0.3 mg/kg for N[C@]1(CO)CC[C@H](c2ccc3c(c2)CC[C@@H](CSc2ccccc2)C3)C1 fall at or above the 40% mark?
**A:** not satisfied

**Q:** Does the reported inhibition in vivo at 0.3 mg/kg for COc1cccc(OC[C@@H]2CCc3cc([C@H]4CC[C@](N)(CO)C4)ccc3C2)c1 fall at or above the 40% mark?
**A:** satisfied

**Q:** Does the reported inhibition in vivo at 0.3 mg/kg for COc1ccc(COC[C@@H]2CCc3cc([C@H]4CC[C@](N)(CO)C4)ccc3C2)cc1 fall at or above the 40% mark?
**A:** not satisfied

**Q:** Does the reported inhibition in vivo at 0.3 mg/kg for N[C@]1(CO)CC[C@H](c2ccc3c(c2)CC[C@H](CSc2ccccc2)C3)C1 fall at or above the 40% mark?
**A:** not satisfied

**Q:** Does the reported inhibition in vivo at 0.3 mg/kg for COc1cccc(CO[C@@H]2CCc3cc([C@H]4CC[C@](N)(CO)C4)ccc3C2)c1 fall at or above the 40% mark?
**A:** not satisfied

**Q:** Does the reported inhibition in vivo at 0.3 mg/kg for N[C@]1(CO)CC[C@H](c2ccc3c(c2)CC[C@@H](COCc2ccccc2)C3)C1 fall at or above the 40% mark?
**A:** satisfied

====

Please provide measured half-life for the entries that follow.
assay: Elimination half-life in Lewis rat at 2 mg/kg, po; assay type: ADME, organism-based; details: in vivo, read-out: beta t1/2 (converted)

**Q:** # lookup: half-life of COc1ccc(OC[C@@H]2CCc3cc([C@H]4CC[C@](N)(CO)C4)ccc3C2)cc1
**A:** < 10 h

**Q:** # lookup: half-life of COc1cccc(OC[C@@H]2CCc3cc([C@H]4CC[C@](N)(CO)C4)ccc3C2)c1
**A:** 24 h

**Q:** # lookup: half-life of N[C@]1(CO)CC[C@H](c2ccc3c(c2)CC[C@@H](CSc2ccccc2)C3)C1
**A:** 20 h

**Q:** # lookup: half-life of N[C@]1(CO)CC[C@H](c2ccc3c(c2)CC[C@@H](COc2ccc(F)cc2)C3)C1
**A:** 46 h

**Q:** # lookup: half-life of COc1cccc(SC[C@@H]2CCc3cc([C@H]4CC[C@](N)(CO)C4)ccc3C2)c1
**A:** 21 h

**Q:** # lookup: half-life of Cc1ccc(OC[C@@H]2CCc3cc([C@H]4CC[C@](N)(CO)C4)ccc3C2)cc1
**A:** 35 h

**Q:** # lookup: half-life of COc1ccccc1SC[C@@H]1CCc2cc([C@H]3CC[C@](N)(CO)C3)ccc2C1
**A:** 24 h

**Q:** # lookup: half-life of COc1ccccc1CC[C@@H]1CCc2cc([C@H]3CC[C@](N)(CO)C3)ccc2C1
**A:** 27 h

**Q:** # lookup: half-life of COc1ccccc1OC[C@@H]1CCc2cc([C@H]3CC[C@](N)(CO)C3)ccc2C1
**A:** 14 h
